Values compiled from ChEMBL document CHEMBL1201862.

# Tested on: TK-10
# TEST_DESCRIPTION: NCI tumour cell line growth inhibition, 48 h
Active and inactive are the calls of the source. No stated cut-off is given here; in the data, active = GI50 up to about 1.1 µM and inactive = higher.
For each of the compounds below, state its GI50.

[[record]]
compound = "COc1ccc(C2C(Cl)C(=O)N2NC(=O)c2ccc(NC(C)=O)cc2)cc1OC (stereo not given)"
result_value = "> 100 µM (inactive)"

[[record]]
compound = "Cn1c2ccccc2c2c3c(c4c5ccccc5n(C)c4c21)C(=O)c1ccccc1C3=O"
result_value = "24.3 µM (inactive)"

[[record]]
compound = "O=C(CC1(O)C(=O)Nc2c(Cl)cc(Cl)cc21)c1ccc(Br)cc1Br (stereo not given)"
result_value = "18.1 µM (inactive)"

[[record]]
compound = "CC(C)/C(Cl)=N\\OC(NC(=O)P(=O)(c1ccccc1)c1ccccc1)(C(F)(F)F)C(F)(F)F"
result_value = "11.7 µM (inactive)"


Now consider the entry below.
Notebook: CC12C(=O)OC(=O)C1(C)C1C=CC2O1 (stereo not given) , GI50 read as 78.7 µM (inactive)
